Reported pEC50 values for the following binders.
- target: T1, human GITR (full length, on cells) (human, UniProt Q9Y5U5 26-241)
- T1 construct: whole, on cells; Also used here for hGITR on the Jurkat reporter cells and on spleen cells of mice knocked-in with the human GITR gene; also called hGITR
- T1 sequence (looked up): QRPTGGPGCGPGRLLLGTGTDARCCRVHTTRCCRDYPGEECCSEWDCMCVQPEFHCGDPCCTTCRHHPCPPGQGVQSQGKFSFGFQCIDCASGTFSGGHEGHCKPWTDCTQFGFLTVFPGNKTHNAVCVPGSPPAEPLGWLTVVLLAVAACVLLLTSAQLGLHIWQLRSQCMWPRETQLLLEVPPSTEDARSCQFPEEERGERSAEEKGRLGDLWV
- assayComment: flow cytometry (FACS) on 293F-hGITR cells, MFI curve fit
Worth noting: pEC50 values are minus log10 of concentrations stated in mol/L.

Worked cases, answers included:
>  <binder>
3503-mAb076 (antibody, V domains shown, Chimeric antibody purified from hybridoma supernatant of Harbour H2L2 mice: human variable regions with rat constant regions; also called 277C12G4; chimeric anti-GITR antibody) VH: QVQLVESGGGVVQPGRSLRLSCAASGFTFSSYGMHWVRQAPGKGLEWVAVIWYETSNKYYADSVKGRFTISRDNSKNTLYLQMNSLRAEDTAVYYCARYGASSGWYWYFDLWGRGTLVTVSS VL: DIQLTQSPSFLSASVGDRVTITCRASQGISSYLAWYQQKPGKAPKLLIYAASTLQSGVPSRFSGSGSGTEFTLTISSLQPEDFATYCCQQLNSYPFTFGQGTKLEIK

>  <pEC50>
9.82

$$$$
>  <binder>
3503-hab070 (antibody, V domains shown, also called 272G5E1; fully human anti-GITR antibody) VH: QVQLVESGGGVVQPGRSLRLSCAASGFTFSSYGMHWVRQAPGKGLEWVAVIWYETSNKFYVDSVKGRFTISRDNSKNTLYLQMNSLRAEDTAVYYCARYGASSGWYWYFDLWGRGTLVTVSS VL: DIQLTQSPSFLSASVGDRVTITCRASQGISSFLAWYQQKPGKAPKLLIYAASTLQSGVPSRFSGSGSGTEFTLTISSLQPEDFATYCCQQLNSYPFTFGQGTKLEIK

>  <pEC50>
9.85

$$$$
>  <binder>
3503-hab070e1 (antibody, V domains shown, also called 272G5E1; engineered fully human anti-GITR antibody) VH: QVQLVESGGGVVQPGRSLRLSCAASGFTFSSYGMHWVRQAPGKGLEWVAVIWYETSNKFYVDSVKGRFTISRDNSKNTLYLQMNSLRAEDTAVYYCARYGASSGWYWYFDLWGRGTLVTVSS VL: DIQLTQSPSFLSASVGDRVTITCRASQGISSFLAWYQQKPGKAPKLLIYAASTLQSGVPSRFSGSGSGTEFTLTISSLQPEDFATYYCQQLNSYPFTFGQGTKLEIK

>  <pEC50>
9.77

$$$$
>  <binder>
3503-mAb070 (antibody, V domains shown, Chimeric antibody purified from hybridoma supernatant of Harbour H2L2 mice: human variable regions with rat constant regions; also called 272G5E1; chimeric anti-GITR antibody) VH: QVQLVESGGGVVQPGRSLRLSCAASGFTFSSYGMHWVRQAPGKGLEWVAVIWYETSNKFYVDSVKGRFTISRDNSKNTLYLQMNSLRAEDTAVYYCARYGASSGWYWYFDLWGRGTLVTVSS VL: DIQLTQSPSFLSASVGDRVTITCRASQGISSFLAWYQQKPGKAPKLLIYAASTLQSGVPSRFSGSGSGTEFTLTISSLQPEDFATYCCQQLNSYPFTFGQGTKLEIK

>  <pEC50>
9.45

$$$$

**Query** Which pEC50 is reported for this binder? 3503-mAb064 (antibody, V domains shown, Chimeric antibody purified from hybridoma supernatant of Harbour H2L2 mice: human variable regions with rat constant regions; also called 265G9A11; chimeric anti-GITR antibody) VH: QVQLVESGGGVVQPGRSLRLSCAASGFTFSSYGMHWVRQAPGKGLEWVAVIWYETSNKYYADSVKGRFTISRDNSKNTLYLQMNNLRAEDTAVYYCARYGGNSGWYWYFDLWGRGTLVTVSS VL: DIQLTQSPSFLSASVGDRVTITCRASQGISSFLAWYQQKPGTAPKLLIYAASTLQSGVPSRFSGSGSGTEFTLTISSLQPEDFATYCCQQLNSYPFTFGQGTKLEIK
**Result** 9.41
